tested on: kinase activity of SEQID-00338 (AMP + ATP→2ADP); assay: Kinase activity of SEQID-00338 and mutants, ADP-Glo Max Assay; format: biochemical; settings: 7 μg/mL, 30 minute reaction at 30° C.; N=2
propertyLabel: AVG proportion activity, percentage AMP + ATP→2ADP converted relative to wild-type (%)
Report the figure in % without appending any unit label.

Endpoint output: AVG proportion activity, percentage AMP + ATP→2ADP converted relative to wild-type of R42Q: single amino acid mutant of SEQID-00338 at substrate binding position 42 (protein, listed as Saccharomyces cerevisiae, strain ATCC 204508 / S288c) MSSSESIRMVLIGPPGAGKGTQAPNLQERFHAAHLATGDMLQSQIAKGTQLGLEAKKIMDQGGLVSDDIMVNMIKDELTNNPACKNGFILDGFPRTIPQAEKLDQMLKEQGTPLEKAIELKVDDELLVARITGRLIHPASGRSYHKIFNPPKEDMKDDVTGEALVQRSDDNADALKKRLAAYHAQTEPIVDFYKKTGIWAGVDASQPPATVWADILNKLGKD . Value? 1.2
